Quick list: pEC50 per entry.
- assay system: kappa opioid receptor (Homo sapiens)
- Sequence (P41145 whole entry): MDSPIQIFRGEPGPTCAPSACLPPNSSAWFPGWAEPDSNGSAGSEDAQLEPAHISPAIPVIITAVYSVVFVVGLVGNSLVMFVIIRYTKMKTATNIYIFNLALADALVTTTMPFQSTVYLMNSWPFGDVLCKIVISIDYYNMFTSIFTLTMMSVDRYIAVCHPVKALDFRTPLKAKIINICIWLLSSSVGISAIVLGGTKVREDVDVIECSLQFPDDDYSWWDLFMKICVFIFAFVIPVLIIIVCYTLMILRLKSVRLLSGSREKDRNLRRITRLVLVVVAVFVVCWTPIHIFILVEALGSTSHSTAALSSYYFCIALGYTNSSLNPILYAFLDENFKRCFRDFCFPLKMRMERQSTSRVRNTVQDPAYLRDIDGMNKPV
- experiment notes: biochemical
- Format: biochemical
- Design: expressed in transfected cells; host or cells: transfected cells
- experimental context: Table 2; read-out: kappa EC50
The read-out pEC50 is expressed as -log10 of concentration in moles per litre.

Solved cases below.
Value sought: pEC50, system kappa opioid receptor (Homo sapiens), item CN1CCC23c4c5ccc(O)c4OC2C(SC2O[C@H](CO)[C@@H](O)[C@H](O)[C@H]2O)C=CC3C1C5 (stereo partly drawn) [4b, 6β-Thiomorphine-6β-S-D-glucopyranoside] . Result: 6.49

Value sought: pEC50, system kappa opioid receptor (Homo sapiens), item COC(=O)[C@H]1OC(SC2C=CC3C4Cc5ccc(OC)c6c5C3(CCN4C)C2O6)[C@H](OC(C)=O)[C@@H](OC(C)=O)[C@@H]1OC(C)=O (stereo partly shown) . Result: 5.57

Value sought: pEC50, system kappa opioid receptor (Homo sapiens), item CN1CCC23c4c5ccc(O)c4OC2C(NC(=O)c2ccc(Cl)c(Cl)c2)C=CC3C1C5 (stereo not drawn) [13g, 6β-(3′,4′-Dichloro)benzamidomorphine] . Result: 10.52

Attention now shifts to the item below.
Value sought: pEC50, system kappa opioid receptor (Homo sapiens), item CN1CCC23c4c5ccc(O)c4OC2C(NC(=O)c2ccccc2)C=CC3C1C5 (stereo not shown) [13d, 60-Benzamidomorphine] . Result: 8.28

====

Quick list: Ki per entry.
- assay system: delta opioid receptor (Homo sapiens)
- Sequence (P41143 whole entry): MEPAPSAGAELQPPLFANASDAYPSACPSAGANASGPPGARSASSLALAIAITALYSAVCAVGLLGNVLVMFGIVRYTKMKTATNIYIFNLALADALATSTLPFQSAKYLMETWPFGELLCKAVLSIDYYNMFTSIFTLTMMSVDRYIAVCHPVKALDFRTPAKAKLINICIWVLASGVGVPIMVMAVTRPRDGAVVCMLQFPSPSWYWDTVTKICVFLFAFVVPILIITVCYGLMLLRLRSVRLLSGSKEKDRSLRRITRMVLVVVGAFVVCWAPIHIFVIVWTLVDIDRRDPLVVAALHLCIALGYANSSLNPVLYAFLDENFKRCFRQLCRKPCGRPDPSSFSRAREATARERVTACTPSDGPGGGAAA
- experiment notes: biochemical
- Assay type: binding
- Design: expressed in transfected cells; host or cells: transfected cells
- experimental context: Table 1; read-out: Ki δ
Give the value; after it, write the unit.

Value sought: Ki, system delta opioid receptor (Homo sapiens), item COc1ccc2c3c1OC1C(SC4O[C@H](CO)[C@@H](O)[C@H](O)[C@H]4O)C=CC4C(C2)N(C)CCC341 (stereo partly drawn) . Result: 1140 nM

Value sought: Ki, system delta opioid receptor (Homo sapiens), item CN1CCC23c4c5ccc(O)c4OC2C(NC(=O)c2ccc(Cl)c(Cl)c2)C=CC3C1C5 (stereo not drawn) [13g, 6β-(3′,4′-Dichloro)benzamidomorphine] . Result: 0.94 nM

Value sought: Ki, system delta opioid receptor (Homo sapiens), item CN1CCC23c4c5ccc(O)c4OC2C(SC2O[C@H](CO)[C@@H](O)[C@H](O)[C@H]2O)C=CC3C1C5 (stereo partly drawn) [4b, 6β-Thiomorphine-6β-S-D-glucopyranoside] . Result: 56.2 nM

Value sought: Ki, system delta opioid receptor (Homo sapiens), item CN1CCC23c4c5ccc(O)c4OC2C(NC(=O)CC2O[C@H](C(=O)O)[C@@H](O)[C@H](O)[C@H]2O)C=CC3C1C5 (stereo partly drawn) [11a, 6β-(α-Glucuronosyl)acetamidomorphine] . Result: 53.8 nM

Value sought: Ki, system delta opioid receptor (Homo sapiens), item CN1CCC23c4c5ccc(O)c4OC2C(NC(=O)c2cccc([N+](=O)[O-])c2)C=CC3C1C5 (stereo not drawn) [13f, 6β-(3′Nitro)benzamidomorphine] . Result: 18 nM

Attention now shifts to the item below.
Value sought: Ki, system delta opioid receptor (Homo sapiens), item CN1CCC23c4c5ccc(O)c4OC2C(SC2O[C@H](C(=O)O)[C@@H](O)[C@H](O)[C@H]2O)C=CC3C1C5 (stereo partly drawn) [4a, Morphine-6β-S-D-glucuronide] . Result: 31.4 nM
